# System: Splenocyte
# experimentSummary: Induction of IFN in C3H/HeJ mouse splenocytes at 10 nM
# Assay type: functional
measuredMetric: Activity

[[record]]
chemicalstructure = "CCCCNc1nc(N)c2nc(O)n(Cc3cccc(C)c3)c2n1"
experimentaltarget = "Splenocyte"
result = "<0.5 IU/ml"

[[record]]
chemicalstructure = "CCCCNc1nc(N)c2nc(O)n(Cc3ccccn3)c2n1"
experimentaltarget = "Splenocyte"
result = "<0.5 IU/ml"

[[record]]
chemicalstructure = "COCCNc1nc(N)c2nc(O)n(Cc3ccc(F)cc3)c2n1"
experimentaltarget = "Splenocyte"
result = "<0.5 IU/ml"

[[record]]
chemicalstructure = "CCCCNc1nc(N)c2nc(O)n(Cc3ccccc3C)c2n1"
experimentaltarget = "Splenocyte"
result = "<0.5 IU/ml"

[[record]]
chemicalstructure = "CCCCNc1nc(N)c2nc(O)n(CC3CCCCC3)c2n1"
experimentaltarget = "Splenocyte"
result = "<0.5 IU/ml"

[[record]]
chemicalstructure = "CCCCNc1nc(N)c2nc(O)n(Cc3ccc(C(C)(C)C)cc3)c2n1"
experimentaltarget = "Splenocyte"
result = "<0.5 IU/ml"

[[record]]
chemicalstructure = "CCCCNc1nc(N)c2nc(O)n(Cc3ccc(Cl)nc3Cl)c2n1"
experimentaltarget = "Splenocyte"
result = "<0.5 IU/ml"

[[record]]
chemicalstructure = "CCCCNc1nc(N)c2nc(O)n(Cc3ccccc3Cl)c2n1"
experimentaltarget = "Splenocyte"
result = "<0.5 IU/ml"

[[record]]
chemicalstructure = "CCCCNc1nc(N)c2nc(O)n(Cc3cccc(Cl)c3)c2n1"
experimentaltarget = "Splenocyte"
result = "<0.5 IU/ml"


Reference source: ChEMBL document CHEMBL1139013
